Each entry below carries its reported GI50.
Tested on: PC-3
Experiment: NCI tumour cell line growth inhibition, 48 h
Active and inactive are the calls of the source. Cut-off read from the data, not from the text of the source: active = GI50 up to about 1.1 µM and inactive = higher. Where a SMILES comes first, the peptide text is derived from it. The star is where a group is joined. Boc = CC(C)(C)OC(=O)*; OBn = c1ccc(CO*)cc1
observable: GI50

>  <compound>
O=C1NC(N2CCOCC2)=N/C1=C\c1cccs1

>  <val>
> 100 µM (inactive)

$$$$
>  <compound>
O=C(O)Cc1c(O)ccc2ccccc12

>  <val>
> 100 µM (inactive)

$$$$
>  <compound>
COc1cc2[nH]c(=O)c3cc(C)cc4c(Cl)nc(c1OC)c2c43

>  <val>
> 100 µM (inactive)

$$$$
>  <compound>
Cn1c(=O)c2c(nc(NCCCCl)n2CC(=O)O)n(C)c1=O

>  <val>
> 100 µM (inactive)

$$$$
>  <compound>
CSc1cnn(CCC#N)c(=O)n1

>  <val>
> 100 µM (inactive)

$$$$
>  <compound>
O=C1CCC2=C(CCC2)N1CCc1ccc2c(c1)OCO2

>  <val>
32.5 µM (inactive)

$$$$
>  <compound>
CC(C)CC(NC(=O)OC(C)(C)C)C(=O)N1CCCC1C(=O)OCc1ccccc1 (stereo not drawn) (Boc-Leu-Pro-OBn; configuration not given here)

>  <val>
> 100 µM (inactive)

$$$$
>  <compound>
N#CCCN(CCC#N)c1ccc(C(=N/c2ccc(Cl)cc2)/N=N/c2ccc(Cl)cc2)cc1

>  <val>
15.6 µM (inactive)

$$$$
>  <compound>
COC(=O)C(=O)c1c2ccccc2n2ccc3c4ccccc4[nH]c3c12

>  <val>
> 10 µM (inactive)

$$$$
>  <compound>
NC(=O)SCC(=O)Nc1ccc2ncccc2c1

>  <val>
64.9 µM (inactive)

$$$$
>  <compound>
CCOC(=O)c1c(C)cc(=O)n2c1[nH]c1ccccc12

>  <val>
> 100 µM (inactive)

$$$$

Taken from ChEMBL document CHEMBL1201862.
